Form field: log10 Ka (one value per entry).
Target: Acetylcholinesterase (Homo sapiens) (UniProt P22303)
Sequence (P22303 whole entry): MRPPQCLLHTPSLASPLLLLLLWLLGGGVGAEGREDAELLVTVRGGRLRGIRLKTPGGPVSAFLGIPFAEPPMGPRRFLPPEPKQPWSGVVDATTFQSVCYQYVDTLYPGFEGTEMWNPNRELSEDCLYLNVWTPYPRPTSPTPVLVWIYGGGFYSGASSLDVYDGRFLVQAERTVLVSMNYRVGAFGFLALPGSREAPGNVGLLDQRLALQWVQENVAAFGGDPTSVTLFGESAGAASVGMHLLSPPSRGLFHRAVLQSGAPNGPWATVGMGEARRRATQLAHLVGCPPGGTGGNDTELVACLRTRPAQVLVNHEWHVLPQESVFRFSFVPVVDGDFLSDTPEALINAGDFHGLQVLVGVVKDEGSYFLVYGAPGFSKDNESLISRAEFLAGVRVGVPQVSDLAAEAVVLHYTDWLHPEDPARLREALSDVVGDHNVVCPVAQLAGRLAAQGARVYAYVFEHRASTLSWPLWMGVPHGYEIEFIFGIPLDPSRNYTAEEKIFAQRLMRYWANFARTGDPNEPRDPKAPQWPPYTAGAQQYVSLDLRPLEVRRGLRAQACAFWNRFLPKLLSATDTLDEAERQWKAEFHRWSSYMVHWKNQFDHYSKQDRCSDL
REPORTED_METRIC: log10 Ka (log10 of the value in ×10³ /M/min)

1. CCCCOC(=O)N1c2ccccc2Sc2ccccc21 : -0.87
2. CCN(CC)CCCOC(=O)N1c2ccccc2Sc2ccccc21 : -0.68
3. O=C(OCCN1CCCC1)N1c2ccccc2Sc2ccccc21 : 1.66
4. COc1ccc(OC(=O)N2c3ccccc3Sc3ccccc32)cc1 : 0.15
5. O=C(Oc1ccc(-c2ccccc2)cc1)N1c2ccccc2Sc2ccccc21 : 2.96
6. O=C(Oc1ccccc1Cl)N1c2ccccc2Sc2ccccc21 : 1.27
7. O=C(Oc1ccc2ccccc2c1)N1c2ccccc2Sc2ccccc21 : 1.05
8. Cc1ccccc1OC(=O)N1c2ccccc2Sc2ccccc21 : 2.74
9. O=C(OCCN1CCCCC1)N1c2ccccc2Sc2ccccc21 : 0.48
10. O=C(Oc1ccc(Cl)cc1)N1c2ccccc2Sc2ccccc21 : 0.86
11. CC(C)(C)c1ccc(OC(=O)N2c3ccccc3Sc3ccccc32)cc1 : -0.20
12. CC(C)(C)OC(=O)N1c2ccccc2Sc2ccccc21 : -0.66
13. CCCOC(=O)N1c2ccccc2Sc2ccccc21 : -0.66
14. Cc1ccc(OC(=O)N2c3ccccc3Sc3ccccc32)cc1 : 1.97
15. O=C(OCCN1CCOCC1)N1c2ccccc2Sc2ccccc21 : -0.92
16. O=C(Oc1ccccc1)N1c2ccccc2Sc2ccccc21 : 1.66
17. CN(C)CCOC(=O)N1c2ccccc2Sc2ccccc21 : -0.26
18. CCN(CC)CCOC(=O)N1c2ccccc2Sc2ccccc21 : -0.62
19. COC(=O)N1c2ccccc2Sc2ccccc21 : -0.37
20. CC(C)(C)c1ccccc1OC(=O)N1c2ccccc2Sc2ccccc21 : -1.96
21. O=C(OC1CCCC1)N1c2ccccc2Sc2ccccc21 : -0.31
22. CN(C)c1cccc(OC(=O)N2c3ccccc3Sc3ccccc32)c1 : 4.28
23. COc1ccccc1OC(=O)N1c2ccccc2Sc2ccccc21 : 0.78
24. O=C(Oc1cccc2ccccc12)N1c2ccccc2Sc2ccccc21 : 3.22
25. COc1cccc(OC(=O)N2c3ccccc3Sc3ccccc32)c1 : 1.95

---

Biological target: Cholinesterase (Homo sapiens, UniProt P06276)
Sequence (P06276 whole entry): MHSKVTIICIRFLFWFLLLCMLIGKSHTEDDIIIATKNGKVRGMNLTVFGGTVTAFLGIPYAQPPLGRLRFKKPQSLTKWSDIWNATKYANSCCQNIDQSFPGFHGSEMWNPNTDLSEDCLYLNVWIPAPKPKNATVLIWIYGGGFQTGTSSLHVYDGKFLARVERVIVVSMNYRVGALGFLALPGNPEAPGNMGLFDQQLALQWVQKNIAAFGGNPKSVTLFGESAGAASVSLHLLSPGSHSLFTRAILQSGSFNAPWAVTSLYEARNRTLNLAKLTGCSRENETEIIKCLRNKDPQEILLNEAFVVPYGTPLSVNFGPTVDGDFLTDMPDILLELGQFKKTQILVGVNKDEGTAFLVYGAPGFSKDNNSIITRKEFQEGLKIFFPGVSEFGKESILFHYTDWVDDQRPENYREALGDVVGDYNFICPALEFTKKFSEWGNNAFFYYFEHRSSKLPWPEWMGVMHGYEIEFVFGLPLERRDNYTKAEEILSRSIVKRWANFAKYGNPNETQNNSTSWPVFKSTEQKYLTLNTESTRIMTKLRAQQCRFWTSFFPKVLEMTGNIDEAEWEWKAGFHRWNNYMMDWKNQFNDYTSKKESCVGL
Experiment: Inhibition of human serum BchE by Ellman's assay
Form field: Ki (one value per entry).
REPORTED_METRIC: Ki

1. O=C(Oc1cccc2ccccc12)N1c2ccccc2Sc2ccccc21 : 0.036 µM
2. O=C(OCCN1CCCCC1)N1c2ccccc2Sc2ccccc21 : 3.2 µM
3. O=C(Oc1ccccc1Cl)N1c2ccccc2Sc2ccccc21 : 45.4 µM

---

Form field: pKi (one value per entry).
Molecular target: Cholinesterase (Homo sapiens)
Assay: Inhibition of human serum BchE by Ellman's assay
pKi: −log10 of the molar value.
REPORTED_METRIC: pKi

1) COc1cccc(OC(=O)N2c3ccccc3Sc3ccccc32)c1 : 6.15
2) CC(C)(C)c1ccccc1OC(=O)N1c2ccccc2Sc2ccccc21 : 6.92
3) O=C(Oc1ccccc1)N1c2ccccc2Sc2ccccc21 : 6.24
4) Cc1cccc(OC(=O)N2c3ccccc3Sc3ccccc32)c1 : 5.77

Data credit: ChEMBL document CHEMBL1155042
